Listed below: pEC50 values for each entry.
target: ABCC6 WT (Homo sapiens, UniProt O95255); assay: ABCC6 WT assay: HiBit protein expression; details: HEK-293 cells transiently expressing HiBit-tagged ABCC6 WT; 24 h treatment; top concentration 20 μM; read-out: ABCC6 WT EC50, Emax
Sequence (O95255 whole entry): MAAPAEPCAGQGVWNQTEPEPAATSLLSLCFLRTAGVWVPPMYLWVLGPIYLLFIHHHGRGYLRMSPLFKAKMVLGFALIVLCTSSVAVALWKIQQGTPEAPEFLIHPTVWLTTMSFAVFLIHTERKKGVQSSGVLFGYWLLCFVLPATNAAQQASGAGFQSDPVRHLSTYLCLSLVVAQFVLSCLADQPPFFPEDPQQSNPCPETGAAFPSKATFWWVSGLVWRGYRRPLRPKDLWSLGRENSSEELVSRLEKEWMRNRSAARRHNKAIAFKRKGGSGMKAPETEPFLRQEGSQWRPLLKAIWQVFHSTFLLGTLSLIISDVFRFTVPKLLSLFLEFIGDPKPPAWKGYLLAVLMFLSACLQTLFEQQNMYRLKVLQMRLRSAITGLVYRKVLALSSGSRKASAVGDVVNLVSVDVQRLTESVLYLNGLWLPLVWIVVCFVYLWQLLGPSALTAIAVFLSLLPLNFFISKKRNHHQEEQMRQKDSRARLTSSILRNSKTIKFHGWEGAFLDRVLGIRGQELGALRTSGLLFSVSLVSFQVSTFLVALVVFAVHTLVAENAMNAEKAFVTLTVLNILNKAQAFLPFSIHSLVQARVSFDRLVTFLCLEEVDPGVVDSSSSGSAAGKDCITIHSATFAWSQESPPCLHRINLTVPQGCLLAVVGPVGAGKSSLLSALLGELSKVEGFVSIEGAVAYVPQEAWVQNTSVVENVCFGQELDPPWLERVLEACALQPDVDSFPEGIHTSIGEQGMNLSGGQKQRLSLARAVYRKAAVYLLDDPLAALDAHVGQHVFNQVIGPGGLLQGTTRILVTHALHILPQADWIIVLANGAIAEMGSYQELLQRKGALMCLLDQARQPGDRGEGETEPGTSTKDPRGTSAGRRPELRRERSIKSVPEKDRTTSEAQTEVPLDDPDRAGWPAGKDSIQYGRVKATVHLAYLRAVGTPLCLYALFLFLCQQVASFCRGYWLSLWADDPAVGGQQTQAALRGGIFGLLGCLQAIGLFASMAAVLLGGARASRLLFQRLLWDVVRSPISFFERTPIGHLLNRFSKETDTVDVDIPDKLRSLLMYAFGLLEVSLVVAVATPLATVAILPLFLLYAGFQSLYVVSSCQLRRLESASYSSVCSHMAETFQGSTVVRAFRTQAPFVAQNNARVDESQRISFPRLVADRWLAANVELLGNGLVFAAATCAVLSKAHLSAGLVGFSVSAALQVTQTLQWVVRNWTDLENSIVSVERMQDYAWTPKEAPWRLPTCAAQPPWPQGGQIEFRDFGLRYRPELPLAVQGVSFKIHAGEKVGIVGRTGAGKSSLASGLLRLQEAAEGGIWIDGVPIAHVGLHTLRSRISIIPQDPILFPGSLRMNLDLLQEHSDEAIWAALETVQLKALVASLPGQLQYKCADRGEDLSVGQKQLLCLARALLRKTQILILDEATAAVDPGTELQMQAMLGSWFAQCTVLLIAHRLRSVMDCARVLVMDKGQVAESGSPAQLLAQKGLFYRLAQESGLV
pEC50: −log10 of the molar value.

# compound, assay-target, pEC50
records = [
    ("Cc1cc(C)c(Oc2nc(-c3cncc(Cl)c3)ccc2N(C2CC2)S(C)(=O)=O)c(C)c1", "ABCC6 WT (Homo sapiens, UniProt O95255)", "5.00 to 6.00"),
    ("Cc1nc(C(F)(F)F)nc(C)c1Oc1nc(-c2cncc(Cl)c2)ccc1NS(C)(=O)=O", "ABCC6 WT (Homo sapiens, UniProt O95255)", "> 6.00"),
    ("CNS(=O)(=O)c1ccc(-c2cncc(C#N)c2)nc1Oc1nc(C2CC2)sc1C", "ABCC6 WT (Homo sapiens, UniProt O95255)", "5.00 to 6.00"),
    ("Cc1cc(C)c(Oc2nc(-c3cncc(C#N)c3)ccc2S(=N)(=O)C2CC2)c(C)n1 (stereo not drawn)", "ABCC6 WT (Homo sapiens, UniProt O95255)", "5.00 to 6.00"),
    ("Cc1cc(C(F)(F)F)nc(C2CC2)c1Oc1nc(-c2cncc(C#N)c2)ccc1N(C)S(C)(=O)=O", "ABCC6 WT (Homo sapiens, UniProt O95255)", "≤ 4.60"),
    ("Cc1cc(C2CC2)nc(C)c1Oc1nc(-n2ccc(C#N)n2)ccc1NS(C)(=O)=O", "ABCC6 WT (Homo sapiens, UniProt O95255)", "5.00 to 6.00"),
    ("Cc1nc(C2CCC2)nc(C)c1Oc1nc(-c2cncc(C#N)c2)ccc1NS(C)(=O)=O", "ABCC6 WT (Homo sapiens, UniProt O95255)", "> 6.00"),
    ("Cc1cc(C(F)(F)F)nc(C2CC2)c1Oc1nc(-c2cncc(C#N)c2)ccc1S(=N)(=O)c1cnccn1 (stereo not drawn)", "ABCC6 WT (Homo sapiens, UniProt O95255)", "5.00 to 6.00"),
    ("Cc1cc(C(F)(F)F)nc(C2CC2)c1Oc1nc(-c2cncc(C#N)c2)ccc1S(=O)(=O)Nc1cccnc1", "ABCC6 WT (Homo sapiens, UniProt O95255)", "> 6.00"),
    ("Cc1cc(C(F)(F)F)nc(C2CC2)c1Oc1nc(-c2cncc(C#N)c2)ccc1S(=O)(=O)NC1COC1", "ABCC6 WT (Homo sapiens, UniProt O95255)", "> 6.00"),
    ("COC(=O)c1cncc(-c2ccc(NS(C)(=O)=O)c(Oc3cc(C)n(C)n3)n2)c1", "ABCC6 WT (Homo sapiens, UniProt O95255)", "5.00 to 6.00"),
    ("CNS(=O)(=O)c1ccc(-c2cncc(C#N)c2)nc1Oc1c(C)cc(C)cc1C", "ABCC6 WT (Homo sapiens, UniProt O95255)", "> 6.00"),
    ("Cc1cc(C(F)F)nc(C2CC2)c1Oc1nc(-c2cncc(C#N)c2)ccc1N(C)S(C)(=O)=O", "ABCC6 WT (Homo sapiens, UniProt O95255)", "5.00 to 6.00"),
    ("Cc1cc(Oc2nc(-c3cncc(C#N)c3)ccc2NS(C)(=O)=O)c(C)nc1C1CC1", "ABCC6 WT (Homo sapiens, UniProt O95255)", "> 6.00"),
    ("Cc1cc(C)c(Oc2cc(-c3cncc(Cl)c3)ncc2NS(C)(=O)=O)c(C)c1", "ABCC6 WT (Homo sapiens, UniProt O95255)", "> 6.00"),
]
